Below is a list of entries, each paired with its recorded EC50 (agonist) value.
target_desc: mouse melanocortin-3 receptor (mouse, UniProt P33033 1-323)
Sequence (P33033 whole entry): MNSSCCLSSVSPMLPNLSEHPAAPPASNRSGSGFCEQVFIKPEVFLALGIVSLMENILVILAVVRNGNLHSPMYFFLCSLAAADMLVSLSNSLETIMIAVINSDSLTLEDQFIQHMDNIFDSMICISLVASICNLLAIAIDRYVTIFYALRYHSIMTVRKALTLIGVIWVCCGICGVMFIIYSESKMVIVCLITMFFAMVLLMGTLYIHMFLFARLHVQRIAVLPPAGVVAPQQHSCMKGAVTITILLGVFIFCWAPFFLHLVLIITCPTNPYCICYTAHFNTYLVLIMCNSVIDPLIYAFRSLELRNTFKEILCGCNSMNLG
assay_name: cell-based or functional assay
Bridges are numbered along the chain shown (N, C = ends). Where no end group is shown, it is not given here. [ ]: non-standard residue; d: D form. Nle = CCCC[C@H](N)C(=O)O

Check out these entries, answers already filled in.
binder	readout_label	observed_result
Ac-SYS[Nle]EHAAAGKPV-NH2 (SMILES CCCC[C@H](NC(=O)[C@H](CO)NC(=O)[C@H](Cc1ccc(O)cc1)NC(=O)[C@H](CO)NC(C)=O)C(=O)N[C@@H](CCC(=O)O)C(=O)N[C@@H](Cc1c[nH]cn1)C(=O)N[C@@H](C)C(=O)N[C@@H](C)C(=O)N[C@@H](C)C(=O)NCC(=O)N[C@@H](CCCCN)C(=O)N1CCC[C@H]1C(=O)N[C@H](C(N)=O)C(C)C) [SEQ ID NO:12 (Ac-Ser-Tyr-Ser-Nle-Glu-His-Ala-Ala-Ala-Gly-Lys-Pro-Val)]	EC50 (agonist)	> 100 µM
Ac-SYS[Nle]EFFRGKPV-NH2 (SMILES CCCC[C@H](NC(=O)[C@H](CO)NC(=O)[C@H](Cc1ccc(O)cc1)NC(=O)[C@H](CO)NC(C)=O)C(=O)N[C@@H](CCC(=O)O)C(=O)N[C@@H](Cc1ccccc1)C(=O)N[C@@H](Cc1ccccc1)C(=O)N[C@@H](CCCNC(=N)N)C(=O)NCC(=O)N[C@@H](CCCCN)C(=O)N1CCC[C@H]1C(=O)N[C@H](C(N)=O)C(C)C) [SEQ ID NO:13 (Ac-Ser-Tyr-Ser-Nle-Glu-Phe-Phe-Arg-Gly-Lys-Pro-Val)]	EC50 (agonist)	> 100 µM

// next item, EC50 (agonist) requested
Notebook: YCRF[dF]NAFCY-NH2 (disulfide 2-9; N-terminus assumed; SMILES C[C@@H]1NC(=O)[C@H](CC(N)=O)NC(=O)[C@@H](Cc2ccccc2)NC(=O)[C@H](Cc2ccccc2)NC(=O)[C@H](CCCNC(=N)N)NC(=O)[C@@H](NC(=O)[C@@H](N)Cc2ccc(O)cc2)CSSC[C@@H](C(=O)N[C@@H](Cc2ccc(O)cc2)C(N)=O)NC(=O)[C@H](Cc2ccccc2)NC1=O) [SEQ ID NO:1 (Tyr-c[Cys-Arg-Phe-DPhe-Asn-Ala-Phe-Cys]-Tyr)] , EC50 (agonist) read as > 100 µM
